Recorded Affinity increase by entry
# System: T1, AFP158/HLA-A*02:01 complex (human)
# T1 construct: biotinylated on the BSP by BirA for ELISA and panning; also called biotinylated AFP158/HLA-A*02:01 complex; Bio-AFP158
# Experiment: SPR; vs AS170036 VL1VH1;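 also: crude scFv captured on sensor chip, peptide–HLA complex flowed over at several concentrations, KD estimated from association and dissociation kinetic rates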

[
  {
    "Binder": "AS170036 VL1VH1 HG108H (scFv) scFv: QSALTQPRSVSGSPGQSVTISCAGTSSDVGSENYVSWYQQHPGKAPKLMIYQVNKRASGVPDRFSGSKSGNTASLTISGLQAEDEADYYCASYRSSDHNIVFGGGTKLTVLGGGGSGGGGSGGGGSEVQLVESGGGLVQPGGSLRLSCAASGFTFSSYAMSWVRQAPGKGLEWVSTINSGTGSPYYADSVKGRFTISRDNSKNTLYLQMNSLRAEDTAVYYCAKNFFDGSWFLHPPAMDYWGQGTLVTVSSHHHHHH",
    "Affinity increase": "0.4 fold"
  },
  {
    "Binder": "AS170036 VL1VH1 HP58W (scFv) scFv: QSALTQPRSVSGSPGQSVTISCAGTSSDVGSENYVSWYQQHPGKAPKLMIYQVNKRASGVPDRFSGSKSGNTASLTISGLQAEDEADYYCASYRSSDHNIVFGGGTKLTVLGGGGSGGGGSGGGGSEVQLVESGGGLVQPGGSLRLSCAASGFTFSSYAMSWVRQAPGKGLEWVSTINSGTGSWYYADSVKGRFTISRDNSKNTLYLQMNSLRAEDTAVYYCAKNFFDGSWFLGPPAMDYWGQGTLVTVSSHHHHHH",
    "Affinity increase": "0.1 fold"
  },
  {
    "Binder": "AS170036 VL1VH1 HG108F (scFv) scFv: QSALTQPRSVSGSPGQSVTISCAGTSSDVGSENYVSWYQQHPGKAPKLMIYQVNKRASGVPDRFSGSKSGNTASLTISGLQAEDEADYYCASYRSSDHNIVFGGGTKLTVLGGGGSGGGGSGGGGSEVQLVESGGGLVQPGGSLRLSCAASGFTFSSYAMSWVRQAPGKGLEWVSTINSGTGSPYYADSVKGRFTISRDNSKNTLYLQMNSLRAEDTAVYYCAKNFFDGSWFLFPPAMDYWGQGTLVTVSSHHHHHH",
    "Affinity increase": "0.3 fold"
  },
  {
    "Binder": "AS170036 VL1VH1 HL107M (scFv) scFv: QSALTQPRSVSGSPGQSVTISCAGTSSDVGSENYVSWYQQHPGKAPKLMIYQVNKRASGVPDRFSGSKSGNTASLTISGLQAEDEADYYCASYRSSDHNIVFGGGTKLTVLGGGGSGGGGSGGGGSEVQLVESGGGLVQPGGSLRLSCAASGFTFSSYAMSWVRQAPGKGLEWVSTINSGTGSPYYADSVKGRFTISRDNSKNTLYLQMNSLRAEDTAVYYCAKNFFDGSWFMGPPAMDYWGQGTLVTVSSHHHHHH",
    "Affinity increase": "0.7 fold"
  },
  {
    "Binder": "AS170036 VL1VH1 HP58N (scFv) scFv: QSALTQPRSVSGSPGQSVTISCAGTSSDVGSENYVSWYQQHPGKAPKLMIYQVNKRASGVPDRFSGSKSGNTASLTISGLQAEDEADYYCASYRSSDHNIVFGGGTKLTVLGGGGSGGGGSGGGGSEVQLVESGGGLVQPGGSLRLSCAASGFTFSSYAMSWVRQAPGKGLEWVSTINSGTGSNYYADSVKGRFTISRDNSKNTLYLQMNSLRAEDTAVYYCAKNFFDGSWFLGPPAMDYWGQGTLVTVSSHHHHHH",
    "Affinity increase": "0.2 fold"
  }
]
